These entries and their values trace back to patent US20070117743A1.

- System: HeLa
- experiment_description: SRB colorimetric assay of cell growth and viability, HeLa
- Type: cell-based, human
- experimental_parameters: 48 hours exposure, SRB; read-out: LC50 HELA
- Method: The finality of this assay is to interrupt the growth of a “in vitro” tumor cell culture by means a continued exhibition of the cells to the sample to be testing. […] Cells are seeded in 96 well microtiter plates, at 5×10^3 cells per well in aliquots of 195 μL medium, and they are allowed to attach to the plate surface by growing in drug free medium for 18 hours. […] Optical densities are read on a automated spectrophotometric plate reader at a single wavelength of 490 nm. […]
# reported CC50; entries follow
observation_type: CC50 (µM)

molecule=C/C=C1\NC(=O)[C@H](Cc2ccccc2)NC(=O)[C@@H](C(C)C)NC(=O)[C@@H]([C@@H](C)CC)NC(=O)[C@H](NC(=O)[C@H](NC(=O)[C@H](CCCN)NC(=O)[C@H]2CCCN2C(=O)[C@H](NC(=O)[C@@H](NC(=O)[C@@H](NC(=O)[C@H](NC(=O)CC[C@@H](C)[C@H]2CC[C@H]3[C@@H]4CC[C@@H]5C[C@H](OC(=O)C(F)(F)F)CC[C@]5(C)[C@H]4CC[C@]23C)C(C)C)[C@@H](C)OC(=O)C(F)(F)F)C(C)C)C(C)C)[C@@H](C)CC)[C@@H](C)OC(=O)[C@H](C(C)C)NC1=O observation_type=CC50 inequality_operator== endpoint_result=3.89
molecule="C/C=C1\\NC(=O)[C@H](Cc2ccccc2)NC(=O)[C@@H](C(C)C)NC(=O)[C@@H]([C@@H](C)CC)NC(=O)[C@H](NC(=O)[C@H](NC(=O)[C@H](CCCC[N+](C)(C)C)NC(=O)[C@H]2CCCN2C(=O)[C@H](NC(=O)[C@@H](NC(=O)[C@@H](NC(=O)[C@H](NC(=O)CC[C@@H](C)CC)C(C)C)[C@@H](C)O)C(C)C)C(C)C)[C@@H](C)CC)[C@@H](C)OC(=O)[C@H](C(C)C)NC1=O [Compound 93, [N^ε(Me)3-Lys^8, (4S)-MeHex^14]-KF]" observation_type=CC50 inequality_operator== endpoint_result=3.25
molecule=C/C=C1\NC(=O)[C@@H](Cc2ccccc2)NC(=O)[C@H](C(C)C)NC(=O)[C@H]([C@H](C)CC)NC(=O)[C@@H](NC(=O)[C@@H](NC(=O)[C@@H](CCCN)NC(=O)[C@@H]2CCCN2C(=O)[C@@H](NC(=O)[C@H](NC(=O)[C@H](NC(=O)[C@@H](NC(=O)CCCC(C)C)C(C)C)[C@H](C)O)C(C)C)C(C)C)[C@H](C)CC)[C@H](C)OC(=O)[C@@H](C(C)C)NC1=O observation_type=CC50 inequality_operator=≥ endpoint_result=6.77

----------
- System: HeLa-APL
- experiment_description: SRB colorimetric assay of cell growth and viability, HeLa-APL
- Assay type: cell-based, human
- experimental_parameters: 48 hours exposure; read-out: LC50 HELA-APL
Where a SMILES comes first, the peptide text is derived from it. Bridges are numbered along the chain shown (N, C = ends). [ ]: non-standard residue; d: D form. The star is where a group is joined. d(aIle) = CC[C@H](C)[C@@H](N)C(=O)O; d(aThr) = C[C@@H](O)[C@@H](N)C(=O)O; Hexanoyl(5-Me) = CC(C)CCCC(=O)*; Orn = NCCC[C@H](N)C(=O)O; Dhb = C/C=C(\N)C(=O)O
observation_type: CC50 (µM)

compound="C/C=C1\\NC(=O)[C@H](Cc2ccccc2)NC(=O)[C@@H](C(C)C)NC(=O)[C@@H]([C@@H](C)CC)NC(=O)[C@H](NC(=O)[C@H](NC(=O)[C@H](CCCN)NC(=O)[C@H]2CCCN2C(=O)[C@H](NC(=O)[C@@H](NC(=O)[C@@H](NC(=O)[C@H](NC(=O)CCCC(C)C)C(C)C)C(C)C)C(C)C)C(C)C)[C@@H](C)CC)[C@@H](C)OC(=O)[C@H](C(C)C)NC1=O [Compound 6, [Val^12]-KF] ({Hexanoyl(5-Me)}-[dV]VV[dV][dP][Orn][d(aIle)][d(aThr)][d(aIle)][dV]F[Dhb]V; ester 8-C)" endpoint_result=3.11

----------
- Tested on: LNCaP
- experiment_description: SRB colorimetric assay of cell growth and viability, LNCaP
- Assay type: cell-based, human
- experimental_parameters: 48 hours exposure, SRB; read-out: LC50 LN-caP
- Experimental: The finality of this assay is to interrupt the growth of a “in vitro” tumor cell culture by means a continued exhibition of the cells to the sample to be testing. […] Cells are seeded in 96 well microtiter plates, at 5×10^3 cells per well in aliquots of 195 μL medium, and they are allowed to attach to the plate surface by growing in drug free medium for 18 hours. […] Optical densities are read on a automated spectrophotometric plate reader at a single wavelength of 490 nm. […]
Where a SMILES comes first, the peptide text is derived from it. Bridges are numbered along the chain shown (N, C = ends). [ ]: non-standard residue; d: D form. The star is where a group is joined. d(aIle) = CC[C@H](C)[C@@H](N)C(=O)O; d(aThr) = C[C@@H](O)[C@@H](N)C(=O)O; hCha = N[C@@H](CCC1CCCCC1)C(=O)O; Hexanoyl(5-Me) = CC(C)CCCC(=O)*; Orn = NCCC[C@H](N)C(=O)O; Dhb = C/C=C(\N)C(=O)O
observation_type: CC50 (µM)

compound="C/C=C1\\NC(=O)[C@H](Cc2ccc(Cl)c(Cl)c2)NC(=O)[C@@H](C(C)C)NC(=O)[C@@H]([C@@H](C)CC)NC(=O)[C@H](NC(=O)[C@H](NC(=O)[C@H](CCCN)NC(=O)[C@H]2CCCN2C(=O)[C@H](NC(=O)[C@@H](NC(=O)[C@@H](NC(=O)[C@H](NC(=O)CC[C@@H](C)CC)C(C)C)[C@@H](C)O)C(C)C)C(C)C)[C@@H](C)CC)[C@@H](C)OC(=O)[C@H](C(C)C)NC1=O [Compound 70, [Phe(3,4-Cl2)^3, (4S)-MeHex^14]-KF]" experimental_system=LNCaP unit_text=µM inequality_operator== endpoint_result=6.47
compound="C/C=C1\\NC(=O)[C@H](Cc2ccccc2)NC(=O)[C@@H](C(C)C)NC(=O)[C@@H]([C@@H](C)CC)NC(=O)[C@H](NC(=O)[C@H](NC(=O)[C@H](CCCN)NC(=O)[C@H]2CCCN2C(=O)[C@H](NC(=O)[C@@H](NC(=O)[C@@H](NC(=O)[C@H](NC(=O)CC[C@@H](C)CC)C(C)C)[C@@H](C)OC(=O)C(F)(F)F)C(C)C)C(C)C)[C@@H](C)CC)[C@@H](C)OC(=O)[C@H](C(C)C)NC1=O [Compound 94]" experimental_system=LNCaP unit_text=µM inequality_operator== endpoint_result=6.35
compound="C/C=C1\\NC(=O)[C@H](Cc2ccccc2)NC(=O)[C@@H](C(C)C)NC(=O)[C@@H]([C@@H](C)CC)NC(=O)[C@H](NC(=O)[C@H](NC(=O)[C@H](CCCN)NC(=O)[C@H]2CCCN2C(=O)[C@H](NC(=O)[C@@H](NC(=O)[C@@H](NC(=O)[C@H](NC(=O)CC[C@@H](C)[C@H]2CC[C@H]3[C@@H]4CC[C@@H]5C[C@H](OC(=O)C(F)(F)F)CC[C@]5(C)[C@H]4CC[C@]23C)C(C)C)[C@@H](C)OC(=O)C(F)(F)F)C(C)C)C(C)C)[C@@H](C)CC)[C@@H](C)OC(=O)[C@H](C(C)C)NC1=O [Compound 97]" experimental_system=LNCaP unit_text=µM inequality_operator== endpoint_result=3.77
compound="C/C=C1\\NC(=O)[C@H](CCC2CCCCC2)NC(=O)[C@@H](C(C)C)NC(=O)[C@@H]([C@@H](C)CC)NC(=O)[C@H](NC(=O)[C@H](NC(=O)[C@H](CCCN)NC(=O)[C@H]2CCCN2C(=O)[C@H](NC(=O)[C@@H](NC(=O)[C@@H](NC(=O)[C@H](NC(=O)CCCC(C)C)C(C)C)[C@@H](C)O)C(C)C)C(C)C)[C@@H](C)CC)[C@@H](C)OC(=O)[C@H](C(C)C)NC1=O [Compound 63] ({Hexanoyl(5-Me)}-[dV]TV[dV][dP][Orn][d(aIle)][d(aThr)][d(aIle)][dV][hCha][Dhb]V; ester 8-C)" experimental_system=LNCaP unit_text=µM inequality_operator== endpoint_result=2.85
compound="C/C=C1\\NC(=O)[C@H](Cc2ccccc2)NC(=O)[C@@H](C(C)C)NC(=O)[C@@H]([C@@H](C)CC)NC(=O)[C@H](NC(=O)[C@H](NC(=O)[C@H](CCCNC(=O)C(F)(F)F)NC(=O)[C@H]2CCCN2C(=O)[C@H](NC(=O)[C@@H](NC(=O)[C@@H](NC(=O)[C@H](NC(=O)CC[C@@H](C)CC)C(C)C)[C@@H](C)O)C(C)C)C(C)C)[C@@H](C)CC)[C@@H](C)OC(=O)[C@H](C(C)C)NC1=O [Compound 96]" experimental_system=LNCaP unit_text=µM inequality_operator== endpoint_result=6.35
compound="C/C=C1\\NC(=O)[C@H](Cc2ccccc2)NC(=O)[C@@H](C(C)C)NC(=O)[C@@H]([C@@H](C)CC)NC(=O)[C@H](NC(=O)[C@H](NC(=O)[C@H](CCCN)NC(=O)[C@@H]2CCCN2C(=O)[C@H](NC(=O)[C@@H](NC(=O)[C@@H](NC(=O)[C@H](NC(=O)CC[C@@H](C)CC)C(C)C)[C@@H](C)O)C(C)C)C(C)C)[C@@H](C)CC)[C@@H](C)OC(=O)[C@H](C(C)C)NC1=O [Compound 59, [Pro^9, (4S)-MeHex^14]-KF]" experimental_system=LNCaP unit_text=µM inequality_operator=≥ endpoint_result=6.76
